# Test system: trachea (contraction induced by potassium chloride)
# ASSAY OVERVIEW: antagonism of the effect of potassium chloride (contractions of isolated guinea pig trachea)
# Format: cell-based
# ASSAY CONTEXT: Cavia porcellus, 5 min, potassium chloride 1850 μg/ml, 5 min contact, 37° C.
Where a name gives a salt, the structure may show the parent alone.
METRIC: IC50 (µg/mL)

CCCn1c(=O)c(N(C)C)nc2ccccc21.Cl	28
CC(C)=CCn1c(=O)c(N)nc2ccccc21 [Compound 14, hydrochloride]	7.4
C=CCn1c(=O)c(NC)nc2ccccc21	9.1
Cn1c(=O)c2[nH]cnc2n(C)c1=O [Theophylline, reference compound]	30
CC(C)(O)CCn1c(=O)c(N)nc2ccccc21 [Compound 17, hydrochloride]	45
CCCCn1c(=O)c(N(C)C)nc2ccccc21	45

[a] C=CCn1c(=O)c(N)nc2ccccc21
[b] CCCn1c(=O)c(NC)nc2ccccc21.Cl
Hello, I am sorting some records. Could you say if a or b has the smaller IC50 value? Give the label of your selection. b
